B1: CPEB3 Ribozyme (parent)
chain: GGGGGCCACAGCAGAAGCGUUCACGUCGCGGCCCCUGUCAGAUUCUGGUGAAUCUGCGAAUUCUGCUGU

variants of: B1; test: self-cleavage, relative activity (ratio to wild type); higher = more cleavage; co-transcriptional
Class definitions on self-cleavage: band A = under 0.3, band B = from 0.3 up to 0.5, band C = 0.5 and over

Into which bin does this variant go? GGGGGCCACAGCAGAAGCGUUCACGUCGCGGCCCCUGUCAGAUUCUGGGGAAUCUGCUAAUUCUGCUGU [U49G G58U]
band C

Sort into band: GGGGGCCACAGCAGUAGCGUUCACGUCGCGGCCCCUGUCAGAUUCUGGUGAAUCUGCGAAUUCUGCUUU [A15U G68U]
band C

Band for GGGGGCCACAGCAGAGGCGUUCACGUCGCGGCCCCUGUCAGAUUCUGGUGAAUAUGCGAAUUCUGCUGU [A16G C54A] ?
band B

Field: class (self-cleavage) — entry: GGGGGCCACAGCAGAAGCGUUCACGACGCGGCCCCUGUCAGAUUCUGGUGAAUCUGCGAAUUCUUCUGU [U26A G65U]
band B

Assign a category based on measured self-cleavage for GGGGGCCACAGCAGAAGCGUUCACGUCGCGGCCCCAGUCAGAUUCUGGUGGAUCUGCGAAUUCUGCUGU [U36A A51G] and give only the class name.
band A

Which band does GGGGGCCACAGGAGAAGCGUUCACGUCGCGGCCCCUGUCAGAUUCUGGUGAAUCUGCGAAUACUGCUGU [C12G U62A] fall in?
band B

# classify by self-cleavage band: GGGGGCCACAGGAGAAGCGUUCACGUCGCGGCCCCUGUCAGAUUCUGGUGAAUGUGCGAAUUCUGCUGU [C12G C54G]
band C

Textbook exercise: identify the category of the variant given here, GGGGGCCACAGCAGAAGCGUUAACGUCGCGGCCCCUGUCAGAUUCUGGUGAAUCUGCGAAUUCUCCUGU [C22A G65C] , according to its measured value.
band A

Assign a category based on measured self-cleavage for GGGGGCCACAGCAGAACCGUUCACGUCGCGGCCCCUGUCAGAUUCUGGUGAAUCUGCGAAUUCUGGUGU [G17C C66G] and give only the class name.
band A

Entry GGGGGCCACGGCAGAAGCGUUCACGUCGCGCCCCCUGUCAGAUUCUGGUGAAUCUGCGAAUUCUGCUGU [A10G G31C] belongs to which category?
band B

Form field 'band' for GGGGGCCACAGCAGAAGCGUGCACGUCGCGGCCCCUGUCAGAUUCUCGUGAAUCUGCGAAUUCUGCUGU [U21G G47C]
band C

All figures here come from the RNAGym collection of RNA variant scans (doi:10.7554/elife.80360).
